Cited source for all entries: PubChem BioAssay (NCATS)

# protocol.notes: Quantitative highthroughput screen to assess conditional lethalithy of SEM cells grown in Human Plasma-Like Medium with dialyzed fetal bovine serum (HPLM+ds) (AID 1963882); further: nearly all actives have a fitted effect of over 35% in size
# cond: SEM B-ALL cells in HPLM+ds, CellTiter-Glo viability, 48 h; series mostly up to 45.8 µM
Records with an inconclusive call do not appear. Calls of active or inactive are those of the source. The call rests on the fitted dose curve; in most records, active means well fitted cell-killing curve with a large enough effect; inconclusive means small, poorly fitted or top-dose-only effect, or effect the other way; inactive means no such curve, though single readings can be large or run the other way.
Respond only with the outcome that fits, drawn from class 1 = active, class 0 = inactive

Ask: Short answer needed: outcome of this test for CCOc1cc2ncc(C#N)c(Nc3ccc(F)c(Cl)c3)c2cc1NC(=O)C=CCN(C)C ?
Result: class 1

Ask: Could you do the same for OC1CCC(Nc2ncc3nc(Nc4c(F)cc(F)cc4F)n([C@@H]4CCOC4)c3n2)CC1 (stereo not given in full) , please?
Result: class 0

Ask: Ok, now CC(C[N+](C)(C)C)OC(N)=O (stereo not given)
Result: class 0

Ask: Also check CO[C@H]1/C=C\O[C@@]2(C)Oc3c(C)c(O)c4c(O)c(c5c(nc6cc(C)ccn65)c4c3C2=O)NC(=O)C(C)=CC=C[C@H](C)[C@H](O)[C@@H](C)[C@@H](O)[C@@H](C)[C@H](OC(C)=O)[C@H]1C
Result: class 1

Ask: Try O=C(Nc1cn[nH]c1-c1nc2ccc(CN3CCOCC3)cc2[nH]1)NC1CC1 next.
Result: class 1

Ask: Continue with COc1cc2c(Oc3ccc4[nH]c(C)cc4c3F)ncnc2cc1OCCCN1CCCC1
Result: class 1

Ask: Please answer likewise for C=C1C(=O)OC(CCCCCCCC)C1C(=O)O (stereo not given)
Result: class 0

Ask: Another: N#CC(c1ccc(Cl)cc1)c1c(Cl)cc(-n2ncc(=O)[nH]c2=O)cc1Cl (stereo not given)
Result: class 0

Ask: Another molecule to check: CCN(CC)CCNC(=O)c1ccc2nc(-c3ccccc3)c(-c3ccc(CN4CCC(n5c(=O)[nH]c6ccccc65)CC4)cc3)nc2c1
Result: class 1

Ask: Now consider CN(C)N=Nc1nc[nH]c1C(N)=O and answer again.
Result: class 0

* * *

# protocol.notes: Quantitative highthroughput screen to assess conditional lethalithy of P12 Ichikawa cells grown in Human Plasma-Like Medium with dialyzed fetal bovine serum (HPLM+ds) (AID 1963879); further: nearly all actives have a fitted effect of over 35% in size; further: potency means the concentration at half of the fitted maximal effect
# cond: ATP luminescence, 48 h; viability; series mostly up to 45.8 µM
Records with an inconclusive call do not appear. Active and inactive are the calls of the source. Calls follow the shape of the dose curve; as a rule, active = well fitted cell-killing curve with a large enough effect; inconclusive = small, poorly fitted or top-dose-only effect; inactive = flat fitted curve, though single readings scatter.
observable: Potency

compound	observable	assay.result
COC(=O)[C@@H]1[C@H]2C[C@@H]3c4[nH]c5ccccc5c4CCN3C[C@@H]2CC[C@@H]1O	Potency	2960 nM (active)
CCCCCCCCCCCC(CC1OC(=O)C1CCCCCC)OC(=O)C(CC(C)C)NC=O (centres undefined)	Potency	20900 nM (active)
O=C(O)C(O)Cc1ccc(O)c(O)c1 (centres undefined)	Potency	inactive
CN[C@@H]1[C@@H](O)[C@@H](O[C@@H]2[C@@H](O)[C@H](O[C@H]3O[C@H](CN)[C@@H](O)[C@H](O)[C@@H]3O)[C@@H](N)C[C@@H]2NC(=O)[C@@H](O)CN)OC[C@]1(C)O	Potency	inactive
CC[C@H](CO)Nc1nc(NCc2ccccc2)c2ncn(C(C)C)c2n1	Potency	inactive
COc1ccc(C=CC(=O)Nc2ccccc2C(=O)O)cc1OC	Potency	inactive
C[C@@H]1CN(c2c(F)c(N)c3c(=O)c(C(=O)O)cn(C4CC4)c3c2F)C[C@H](C)N1	Potency	inactive
COc1ccc2cc([C@H](C)C(=O)O)ccc2c1	Potency	inactive

Ask: # input compound: Nc1nc(=O)n([C@H]2CSC(CO)O2)cc1F (some centres undefined) ; wanted: its Potency
Result: inactive

Ask: # repeat for CCC(=C(c1ccccc1)c1ccc(OCCN(C)C)cc1)c1ccccc1
Result: inactive

Ask: Please give the result for CC(=O)ON=C1C(c2c(O)[nH]c3cc(Br)ccc23)=Nc2ccccc21 too.
Result: 20900 nM (active)

Ask: Now give it for CNc1nccc(-c2cccnc2Oc2cc(C(=O)Nc3cccc(C(F)(F)F)c3)ccc2C)n1 too.
Result: inactive

Ask: Consider next the compound O=C(CS(=O)Cc1ccco1)NCC=CCOc1cc(CN2CCCCC2)ccn1 (centres undefined) in the same way.
Result: inactive

Ask: And the next one, CCOC(=O)C1=C(C)NC(=S)NC1c1cccc(O)c1 (centres undefined) ?
Result: 187 nM (active)

Ask: Same again, this time with Cc1c(Cn2c(C)nc3c(C(=O)O)cc(N4CCOCC4)cc32)cccc1C(F)(F)F
Result: inactive

Ask: Queued: CC1(C)S[C@H]2[C@H](NC(=O)[C@@H](N)c3ccc(O)cc3)C(=O)N2[C@@H]1C(=O)O
Result: 7430 nM (active)
